# solubility kinetic per record follows
# Experiment Notes: physchem
# Format: physicochemical
# Stated Conditions: pH 7.4, aqueous buffer, kinetic from dmso stock
Report only the number, with the unit µM understood.

Some molecules with recorded solubility kinetic:
COc1cc(-c2cc(=O)[nH]c(Nc3ccc(Cl)c(O)c3)n2)ccn1 [Compound 1d] ... 19.4
COc1cccc(-c2nc(Nc3ccccc3)cc(=O)[nH]2)c1 [Compound 1b] ... 3.5

# ---- query molecule ----
Can you look up the measured solubility kinetic of COc1ccc(C)c(-c2cc(=O)[nH]c(Nc3ccccc3)n2)c1 [Compound 1v] for me?
8

Provenance of the data: patent US20240002361A1
